- experiment_summary: Antioxidizing action for salad oil (lipid peroxide, Yagi's method)
- measurement_parameters: 0.1 mg/ml, 180° C. for 40 min.
Provide the recorded Quantity of lipid peroxide for the entries that follow.
Field: numeric (nmol/mL). Do not append units.

The recorded Quantity of lipid peroxide for "CC1(C)C[C@H]2C3=CC[C@@H]4[C@@]5(C)CC[C@H](O[C@@H]6O[C@H](C(=O)O)[C@@H](O)[C@H](O)[C@H]6O[C@@H]6O[C@H](CO)[C@H](O)[C@H](O)[C@H]6O[C@@H]6O[C@H](CO)[C@@H](O)[C@H](O)[C@H]6O)[C@](C)(CO)[C@@H]5CC[C@@]4(C)[C@]3(C)CC[C@@]2(C)[C@H](O[C@@H]2OC[C@H](O)[C@H](O[C@@H]3O[C@H](CO)[C@@H](O)[C@H](O)[C@H]3O)[C@H]2O)[C@@H]1O" is 22.5

The recorded Quantity of lipid peroxide for "C[C@@H]1O[C@@H](O[C@H]2[C@H](O[C@H]3[C@H](O[C@H]4CC[C@@]5(C)[C@@H](CC[C@]6(C)[C@@H]5CC=C5[C@@H]7CC(C)(C)C[C@@H](O)[C@]7(C)CC[C@]56C)[C@@]4(C)CO)O[C@H](C(=O)O)[C@@H](O)[C@@H]3O)O[C@H](CO)[C@H](O)[C@@H]2O)[C@H](O)[C@H](O)[C@H]1O" is 45.6

The recorded Quantity of lipid peroxide for "CC1(C)C[C@H]2C3=CC[C@@H]4[C@@]5(C)CC[C@H](O[C@@H]6O[C@H](C(=O)O)[C@@H](O)[C@H](O)[C@H]6O[C@@H]6O[C@H](CO)[C@H](O)[C@H](O)[C@H]6O)[C@](C)(CO)[C@@H]5CC[C@@]4(C)[C@]3(C)CC[C@@]2(C)[C@H](O[C@@H]2OC[C@H](O)[C@H](O[C@@H]3O[C@H](CO)[C@@H](O)[C@H](O)[C@H]3O)[C@H]2O)[C@@H]1O" is 60.0
